experimental_system: interaction between the KRS protein and the laminin receptor (LR) (Homo sapiens, UniProt Q15046)
Construct: expressed in transfected cells; host or cells: yeast EGY/SH cells
experimental_protocol: Yeast Two Hybrid inhibition of the interaction between the KRS protein and the laminin receptor (LR)
Format: cell-based
condition_info: 1 μL of 20 mM DMSO solution per 200 μL culture; 30° C., 6 days; absorbance 540 nm; non-treated control = 100%
Protocol: The inhibitory activity against the interaction between the KRS protein and the laminin receptor (LR) was evaluated according to the Yeast Two Hybrid method described in WO2011/056021. […] The cultured yeast cells were diluted with the said galactose medium, until the absorbance at 540 nm attains to about 0.15 to 0.2. […] The plate was cultured at 30° C. for 6 days and then the absorbance of the each well was measured at 540 nm. […]
reported_property: Yeast cell proliferation rates KRS-LR (%)

# compound, number
measured = [
    ("CCC(C(=O)O)n1c(=NC(=O)c2cccc(F)c2)sc2c(Cl)cccc21 (centres unmarked)", 36.1),
    ("CCC(C(=O)O)n1c(=NC(=O)c2cccc(Cl)c2)sc2ccccc21 (centres unmarked)", 31.5),
    ("O=C(O)Cn1c(=NC(=O)c2cccc(Cl)c2)sc2ccc(Cl)cc21", 14.6),
    ("CCOc1ccc2c(c1)sc(=NC(=O)c1cccc(Cl)c1)n2C(CC)C(=O)O (centres unmarked)", 31.2),
    ("CCC(C(=O)O)n1c(=NC(=O)c2ccc(C)cc2)sc2c(F)cccc21 (centres unmarked)", 33.2),
]

----------
Reported Yeast cell proliferation rates KRS-AIMP3 (%) values are given for each entry in this list.
experimental_system: binding between KRS and AIMP3 (Homo sapiens)
Construct: expressed in transfected cells; host or cells: yeast cells (co-transformed)
experimental_protocol: Yeast Two Hybrid specificity test, LexA-KRS / B42-AIMP3 co-transformed yeast cells
Format: cell-based
condition_info: 1 μL of 20 mM DMSO solution per 200 μL culture; 30° C., 6 days; absorbance 540 nm; non-treated control = 100%
reported_property: Yeast cell proliferation rates KRS-AIMP3 (%)

# compound, number
records = [
    ("CCC(C(=O)O)n1c(=NC(=O)c2cccc(Cl)c2)sc2ccc(Cl)cc21 (stereo not shown)", 108.4),
    ("CC(C(=O)O)n1c(=NC(=O)c2cccc(Cl)c2)sc2c(F)c(F)ccc21 (stereo not shown)", 100.3),
    ("Cc1ccc2c(sc(=NC(=O)c3cccc(Cl)c3)n2C(C)C(=O)O)c1F (stereo not shown)", 104.6),
    ("CCOc1ccc2c(c1)sc(=NC(=O)c1ccc(F)cc1)n2C(CC)C(=O)O (stereo not shown)", 86.1),
    ("CC(C(=O)O)n1c(=NC(=O)c2ccc(F)c(F)c2)sc2cc(F)c(F)cc21 (stereo not shown)", 93.2),
    ("CCC(C(=O)O)n1c(=NC(=O)c2ccc(OC)cc2)sc2c(F)cccc21 (stereo not shown)", 98.3),
    ("CC(C(=O)O)n1c(=NC(=O)c2cccc(C(F)(F)F)c2)sc2ccc(Cl)cc21 (stereo not shown)", 107.0),
    ("CCOc1ccc2c(c1)sc(=NC(=O)c1cccc(Cl)c1)n2C(C)C(=O)O (stereo not shown)", 105.3),
    ("Cc1ccc(C(=O)N=c2sc3ccc(F)cc3n2C(C)C(=O)O)cc1 (stereo not shown)", 98.5),
    ("CCC(C(=O)O)n1c(=NC(=O)c2ccc(OC)cc2)sc2cc(OC(F)(F)F)ccc21 (stereo not shown)", 99.0),
    ("CCC(C(=O)O)n1c(=NC(=O)c2ccc(C)cc2)sc2c(C)cccc21 (stereo not shown)", 102.8),
    ("CC(C(=O)O)n1c(=NC(=O)c2cccc(C(F)(F)F)c2)sc2ccccc21 (stereo not shown)", 92.8),
    ("CC(C(=O)O)n1c(=NC(=O)c2cccc(Cl)c2)sc2c(F)c(Cl)ccc21 (stereo not shown)", 99.1),
    ("Cc1cccc2c1sc(=NC(=O)c1cccc(Cl)c1)n2C(C)C(=O)O (stereo not shown)", 99.5),
    ("CCC(C(=O)O)n1c(=NC(=O)c2cccc(Cl)c2)sc2c(C)cccc21 (stereo not shown)", 106.4),
    ("CCC(C(=O)O)n1c(=NC(=O)c2ccc(C)cc2)sc2c(F)c(F)ccc21 (stereo not shown)", 105.3),
    ("CCC(C(=O)O)n1c(=NC(=O)c2cccc(Cl)c2)sc2c(F)c(F)ccc21 (stereo not shown)", 107.2),
    ("CCC(C(=O)O)n1c(=NC(=O)c2cccc(Cl)c2)sc2cc(C)ccc21 (stereo not shown)", 80.8),
    ("CCOc1ccc2c(c1)sc(=NC(=O)c1ccc(C)cc1)n2C(CC)C(=O)O (stereo not shown)", 100.1),
    ("CCC(C(=O)O)n1c(=NC(=O)c2ccc(C)cc2)sc2cc3c(cc21)OCO3 (stereo not shown)", 114.8),
    ("CCC(C(=O)O)n1c(=NC(=O)c2cccc(F)c2)sc2c(Cl)cccc21 (stereo not shown)", 90.3),
    ("O=C(O)Cn1c(=NC(=O)c2cccc(Cl)c2)sc2ccc(Cl)cc21", 99.0),
    ("CCC(C(=O)O)n1c(=NC(=O)c2cccc(Cl)c2)sc2c(Cl)cccc21 (stereo not shown)", 105.4),
    ("CCC(C(=O)O)n1c(=NC(=O)c2cccc(OC)c2)sc2c(F)cccc21 (stereo not shown)", 97.3),
    ("CCC(C(=O)O)n1c(=NC(=O)c2cccc(C(F)(F)F)c2)sc2ccccc21 (stereo not shown)", 106.5),
    ("CCC(C(=O)O)n1c2c(sc1=NC(=O)c1cccc(Cl)c1)CCCC2 (stereo not shown)", 90.4),
    ("CC(C(=O)O)n1c(=NC(=O)c2cccc(C(F)(F)F)c2)sc2c(F)cc(F)cc21 (stereo not shown)", 100.0),
    ("CCC(C(=O)O)n1c(=NC(=O)c2ccc(C(F)(F)F)cc2)sc2ccccc21 (stereo not shown)", 104.1),
    ("CCC(C(=O)O)n1c(=NC(=O)c2cccc(Cl)c2)sc2c(F)c(Cl)ccc21 (stereo not shown)", 106.3),
    ("CCC(C(=O)O)n1c(=NC(=O)c2cccc(Cl)c2)sc2cc(F)c(F)cc21 (stereo not shown)", 99.0),
    ("CC(C(=O)O)n1c(=NC(=O)c2cccc(C(F)(F)F)c2)sc2ccc(F)cc21 (stereo not shown)", 104.4),
    ("CCC(C(=O)O)n1c(=NC(=O)c2ccc(C)cc2)sc2cccc(OC)c21 (stereo not shown)", 84.1),
    ("CCC(C(=O)O)n1c(=NC(=O)c2ccc(C)cc2)sc2c(F)cccc21 (stereo not shown)", 102.7),
    ("CCC(C(=O)O)n1c(=NC(=O)c2cccc(Cl)c2)sc2ccccc21 (stereo not shown)", 102.1),
]

----------
experimental_system: binding between KRS and AIMP2 (Homo sapiens)
Construct: expressed in transfected cells; host or cells: yeast cells (co-transformed)
Sequence (Q15046 whole entry): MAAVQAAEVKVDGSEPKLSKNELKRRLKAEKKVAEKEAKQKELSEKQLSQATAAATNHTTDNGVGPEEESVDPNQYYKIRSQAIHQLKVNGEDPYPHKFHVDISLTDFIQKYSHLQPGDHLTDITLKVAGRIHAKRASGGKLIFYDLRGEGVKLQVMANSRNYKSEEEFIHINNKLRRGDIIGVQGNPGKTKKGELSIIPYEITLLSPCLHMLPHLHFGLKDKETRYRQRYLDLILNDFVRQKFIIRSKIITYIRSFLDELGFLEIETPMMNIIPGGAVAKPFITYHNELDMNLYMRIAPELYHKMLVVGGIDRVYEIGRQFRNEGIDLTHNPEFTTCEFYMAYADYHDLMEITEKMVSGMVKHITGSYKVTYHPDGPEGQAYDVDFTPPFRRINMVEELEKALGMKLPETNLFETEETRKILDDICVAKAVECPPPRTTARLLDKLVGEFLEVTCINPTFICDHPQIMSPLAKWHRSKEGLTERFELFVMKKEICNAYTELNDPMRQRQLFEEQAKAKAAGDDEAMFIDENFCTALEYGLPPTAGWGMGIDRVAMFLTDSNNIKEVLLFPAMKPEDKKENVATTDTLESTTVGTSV
experimental_protocol: Yeast Two Hybrid specificity test, LexA-KRS / B42-AIMP2 co-transformed yeast cells
Assay type: cell-based
condition_info: 1 μL of 20 mM DMSO solution per 200 μL culture; 30° C., 6 days; absorbance 540 nm; non-treated control = 100%
reported_property: Yeast cell proliferation rates KRS-AIMP2 (%)

# compound, number
data = [
    ("CCC(C(=O)O)n1c(=NC(=O)c2cccc(Cl)c2)sc2ccccc21 (centres unmarked)", 79.4),
    ("CCOc1ccc2c(c1)sc(=NC(=O)c1cccc(Cl)c1)n2C(C)C(=O)O (centres unmarked)", 106.0),
    ("CCC(C(=O)O)n1c(=NC(=O)c2ccc(OC)cc2)sc2c(F)c(F)ccc21 (centres unmarked)", 95.8),
    ("CCC(C(=O)O)n1c(=NC(=O)c2cccc(Cl)c2)sc2c(F)c(F)ccc21 (centres unmarked)", 104.0),
    ("CC(C(=O)O)n1c(=NC(=O)c2cccc(C(F)(F)F)c2)sc2ccc(Cl)cc21 (centres unmarked)", 101.6),
    ("CC(C(=O)O)n1c(=NC(=O)c2cccc(Cl)c2)sc2c(Cl)cccc21 (centres unmarked)", 95.8),
    ("CCC(C(=O)O)n1c(=NC(=O)c2cccc(Cl)c2)sc2c(C)cccc21 (centres unmarked)", 103.0),
    ("CCC(C(=O)O)n1c(=NC(=O)c2cccc(Cl)c2)sc2cc(F)c(F)cc21 (centres unmarked)", 87.0),
    ("CCC(C(=O)O)n1c(=NC(=O)c2cccc(Cl)c2)sc2c(F)c(Cl)ccc21 (centres unmarked)", 103.9),
    ("Cc1ccc(C(=O)N=c2sc3c(Cl)cccc3n2C(C)C(=O)O)cc1 (centres unmarked)", 102.0),
    ("CCC(C(=O)O)n1c(=NC(=O)c2cccc(OC)c2)sc2c(F)cccc21 (centres unmarked)", 98.6),
    ("CCOc1ccc2c(c1)sc(=NC(=O)c1cccc(Cl)c1)n2C(CC)C(=O)O (centres unmarked)", 103.3),
    ("Cc1ccc(C(=O)N=c2sc3ccc(F)cc3n2C(C)C(=O)O)cc1 (centres unmarked)", 116.6),
    ("CC(C(=O)O)n1c(=NC(=O)c2cccc(Cl)c2)sc2cc(C(F)(F)F)ccc21 (centres unmarked)", 90.0),
    ("CCC(C(=O)O)n1c(=NC(=O)c2cccc(F)c2)sc2c(Cl)cccc21 (centres unmarked)", 97.1),
    ("CCC(C(=O)O)n1c(=NC(=O)c2cccc(Cl)c2)sc2c(Cl)cccc21 (centres unmarked)", 100.2),
    ("CCC(C(=O)O)n1c(=NC(=O)c2ccc(OC)cc2)sc2cc(OC(F)(F)F)ccc21 (centres unmarked)", 99.3),
]
